Provenance of the data: patent US9663429B2

Recorded Transcriptional activity % relative to 1,25D (100%) for the following compounds
test system: 24-hydroxylase promoter, CYP24A1 (pCYP24A1-Luc); test: Transactivation reporter assay (pCYP24A1-Luc) in MCF-7 cells; details: MCF-7 cells, pCYP24A1-Luc
quantity.measured: Transcriptional activity % relative to 1,25D (100%)

compound=C=C1/C(=C\C=C(/CCC)c2cccc(CCCCCC(C)(C)O)c2)C[C@@H](O)C[C@@H]1O data_value=21%
compound=C=C1/C(=C\C=C(/CCCCCC)c2cccc(CCCCCC(C)(C)O)c2)C[C@@H](O)C[C@@H]1O data_value=17%
compound="C=C1/C(=C\\C=C(/CC)c2cccc(CCCCCC(C)(C)O)c2)C[C@@H](O)C[C@@H]1O [PG-136p]" data_value=33%
